- system under test: T1, GRIP1_2, Q9Y3R0
- T1 sequence (Q9Y3R0 145-248, limits assumed, looked up): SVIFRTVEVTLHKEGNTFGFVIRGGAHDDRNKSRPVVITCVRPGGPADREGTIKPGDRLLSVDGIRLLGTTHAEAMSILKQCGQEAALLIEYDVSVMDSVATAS
- assay remarks: holdup assay
- Set-up: key: below the threshold = too weak to quantify, mostly under pKd 3.1 to 4
- reported conditions: plain residues with an end cap or a label only (N-terminal biotin on a linker: ado-ado)
measurement label: pKd

// worked examples, pKd included
[
  {
    "binder": "RRRESYSTTV [EVI5, O60447]",
    "pKd": "below the threshold"
  },
  {
    "binder": "TACCHSETVV [TGFA, P01135]",
    "pKd": "below the threshold"
  },
  {
    "binder": "QPCFNKLFPL [LPXN, O60711]",
    "pKd": "below the threshold"
  },
  {
    "binder": "SAKVRTVTSV [RASL11B, Q9BPW5]",
    "pKd": "below the threshold"
  },
  {
    "binder": "SGSLKLMTTV [DACT1, Q9NYF0]",
    "pKd": "below the threshold"
  },
  {
    "binder": "PRAEAEDSFL [PDGFRB, P09619]",
    "pKd": "below the threshold"
  },
  {
    "binder": "DTTVPESEDL [MYOZ2, Q9NPC6]",
    "pKd": "below the threshold"
  },
  {
    "binder": "NLSIEKETKL [ASNSD1, Q9NWL6]",
    "pKd": "below the threshold"
  },
  {
    "binder": "PLSPEQPTKL [TRIM50, Q86XT4]",
    "pKd": "below the threshold"
  },
  {
    "binder": "EVNETDDTKM [KCNJ1, P48048]",
    "pKd": "below the threshold"
  }
]

// query Which measured pKd value corresponds to TPPAAKKSRI [BAZ1A, Q9NRL2] ?
// result below the threshold
